assay: FRG1 promoter luciferase signal modulators, primary screen, FRG1 inhibition for FSHD, cell-based, C2C12 myotubes, firefly/Renilla luciferase, luminescence (AID 1084); settings: higher = more signal, called active from +8 up or from −8 down
Please mark yes if the recorded z-score is equal to or greater than -0.7, and no if it falls below.

Compound	Answer Label
Cc1ccc(S[C@]2(C(=O)O)CC(=O)N(C(C)C)[C@@H]2c2ccc(CO)cc2I)cc1	no
Cc1ccc(S[C@]2(C(=O)NCCCN(C)C)CC(=O)N(Cc3cc(C(F)(F)F)cc(C(F)(F)F)c3)[C@@H]2c2ccc(CO)cc2)cc1	yes
O=C1c2ccccc2[C@](Cc2ccccc2I)(C(=O)NCC(F)(F)F)[C@H](c2ccc(CO)cc2)N1Cc1ccccc1Cl	no
C=C[C@H](CO[Si](CC)(CC)CC)N(Cc1ccc(OC(C)=O)c(OC)c1)S(=O)(=O)c1ccc(Br)cc1	no
CC(C)C(O)C1C=CC2C(=O)NC(=O)C2N1Nc1ccc(Cl)cc1Cl (centres undefined)	no
C=C(/C(=C/C[C@H](OC(C)=O)c1ccc(CO)o1)c1cc(C(=O)OC)ccc1OC)C(C)C	yes
CO[C@H]1O[C@H](CO)[C@@H](OC(=O)Nc2ccccc2)[C@H](OC(=O)Nc2ccccc2)[C@@H]1OC(=O)Nc1ccccc1	yes
[N-]=[N+]=NCc1ccccc1[C@@H]1OC(c2ccc(OCCCO)cc2)=N[C@]1(Cc1ccccc1)C(=O)NCC(O)CO (some centres undefined)	yes
Cc1ccc(S[C@]2(C(=O)NCCCN(C)C)CC(=O)N(Cc3ccccc3C(F)(F)F)[C@@H]2c2ccc(CO)cc2)cc1	no
COC(=O)[C@@]1(Cc2ccc(F)cc2)[C@H]2c3cc(C(=O)N(C)C)n(Cc4ccc(Cl)c(C(F)(F)F)c4)c3C[C@H]2CN1C(=O)c1ccccc1	yes
C=C(C)[C@@H]1CC=C(C(O)C2C=CC3C(=O)N(c4ccccc4)C(=O)C3N2Nc2ccccc2)CC1 (some centres undefined)	yes
COCCOC(=O)N1C(=O)[C@@]2(c3ccccc31)[C@H](c1ccccc1OCCO)N1[C@H](c3ccccc3)[C@H](c3ccccc3)OC(=O)[C@H]1[C@@H]2C(=O)N1CCN(c2ncccn2)CC1	no
CN(C)CCCCCCNC(=O)[C@H]1C[C@H]2C(=O)N3CCC[C@H]3C(=O)N2[C@H]1c1ccc(O)cc1	yes
O=C1O[C@H](c2ccccc2)[C@H](c2ccccc2)N2[C@H]1[C@@H](C(=O)N1CCCCCCC1)[C@]1(C(=O)Nc3ccc(C#CCCO)cc31)[C@H]2c1ccccc1OCCO	no
CN1C(=O)C2C=CC(C(O)C3CC=CCC3)N(N(c3ccccc3)c3ccccc3)C2C1=O (centres undefined)	yes
CC(C)C(O)C1C=CC2C(=O)N(c3ccccc3)C(=O)C2N1Nc1ccc([N+](=O)[O-])cc1 (centres undefined)	yes
CCOC(=O)C1=CC[C@@H](c2ccccc2)N(S(=O)(=O)c2ccc(C)cc2)[C@H]1c1ccccc1C	no
O=C1C2C=CC(C(O)c3cc(C(F)(F)F)cc(C(F)(F)F)c3)N(n3cnnc3)C2C(=O)N1Cc1ccccc1 (centres undefined)	yes
Cc1ccc(S[C@]2(C(=O)NCCCN(C)C)CC(=O)N(Cc3cc(C(F)(F)F)cc(C(F)(F)F)c3)[C@@H]2c2ccc(CO)cc2I)cc1	yes
CCOC(=O)C[C@H]1[C@H](OC(=O)c2cc3ccccc3oc2=O)[C@@H](NC(=O)c2ccccc2)c2cc(OCCCO)ccc2N1C(=O)c1ccc2ccccc2n1	no
CC1(C)[C@@H]2CC(C(O)C3C=CC4C(=O)N(c5ccccc5)C(=O)C4N3Nc3ccc([N+](=O)[O-])cc3)=C[C@H]1C2 (some centres undefined)	no
C=C(CCCC)/C(=C/C[C@H](OC(=O)c1ccncc1)c1ccccc1OCCO)c1cnc2ccccc2c1	no
O=C1C2C=CC(C(O)Cc3ccccc3)N(n3cnnc3)C2C(=O)N1Cc1ccccc1 (centres undefined)	yes
COc1cc(C(O)C2C=CC3C(=O)NC(=O)C3N2Nc2ccccn2)cc(OC)c1OC (centres undefined)	yes
